Source: PubChem BioAssay

Test: doxorubicin toxicity protection in MRP-1 cells – H69AR cells, CellTiter-Glo, duplicate, MRP-1 activator project, pilot screen (AID 807);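 also: compound pretreatment 18-22 h then 72 h combined with doxorubicin; 0% = doxorubicin alone and 100% = vehicle without doxorubicin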
Settings: H69AR viability with doxorubicin, CellTiter-Glo luminescence; at 10 µM; active compounds read high
outcome.measure: viability increase (%)
Number in %, nothing else.

See these solved cases before continuing.
Cn1c(=O)[nH]c(=O)c2c1nc(N1CCCCC1)n2CCSc1ncccn1    1.1
COC(=O)C1=C(C)Nc2nnnn2C1c1ccc(Cl)cc1Cl (stereo unspecified)    -5.06
O=C(Cn1c(=O)oc2cc(S(=O)(=O)N3CCCCCC3)ccc21)NC1CCCCC1    -4.28
CC(C)Cc1nnc(NS(=O)(=O)c2ccc(Cl)cc2)s1    2.68
COc1ccc(NC(=O)NCCN2CCN(c3cccc(Cl)c3)CC2)cc1    -1.77

Cn1cc(Cl)c(C(=O)NC2CCCC2)n1 has a reported viability increase of -0.89

GET /value?item= COc1ccc(C2c3c(oc4ccccc4c3=O)C(=O)N2c2ccc(C)cn2)cc1OC (stereo unspecified) &field=viability increase returns -2.66

Per the records, this compound ( CCCC(=O)N=c1sc2cccc(F)c2n1C ) has viability increase equal to -2.75

====

Test: S. cerevisiae growth inhibition in permissive medium (OD615), pilot counter-assay for S. cerevisiae lifespan shortening project, permissive growth control (AID 705)
Conditions: OD615, 24 h, at 10 µM, active compounds read high
Below is a list of entries, each paired with its recorded growth inhibition value.
Hi! Could you send only the number? It should be in %, unit omitted.

CCOC(=O)c1nc2sc3c(c2c(=O)[nH]1)CCCC3    10.2
Cc1ccc(S(=O)(=O)NCCSc2nnnn2-c2ccc(C(N)=O)cc2)cc1    -3.29
CSCCC(N=CC1=C(O)CC(C)(C)CC1=O)C(=O)O (configuration not stated)    1.4
CC(C)=C1SC(N2CCN(Cc3ccccc3)CC2)=NC1=O    -6.78
COc1cccc(C2=NOC(C(=O)N3CCN(c4ccccc4)CC3)C2)c1OC (configuration not stated)    -7.02

Briefly, growth inhibition measured for CCOc1ccc(NS(=O)(=O)c2cc(Cl)ccc2OC)cc1 : -10.7

CCOC(=O)C1=C(C)Nc2nnnn2C1c1ccc(OC)c(Br)c1 (configuration not stated) has a reported growth inhibition of -8.85

Recorded result, O=C(Cn1cc2c(n1)CCCCC2)N1CCc2ccccc21 , growth inhibition: -4.03

The recorded growth inhibition for CCCCSc1nc(CCC)cc(=O)[nH]1 is -14.4

The compound O=C(CC1(O)C(=O)Nc2ccccc21)c1ccc2c(c1)OCO2 (configuration not stated) showed growth inhibition equal to -7.81

Value of measured growth inhibition for the entry COc1ccccc1N1CCN(C(CNC(=O)C2CCCCC2)c2cccnc2)CC1 (configuration not stated) : -3.31

Record O=C(CNS(=O)(=O)c1cccs1)Nc1ccc2c(c1)OCCO2 . Reported growth inhibition: -22.3

Reported growth inhibition of Cc1cccc(N2CC(c3nc4ccccc4n3C)CC2=O)c1C (configuration not stated) : -8.87

Record CC(c1ccco1)N(C(=O)COc1ccc(Cl)cc1Cl)c1ccccn1 (configuration not stated) . Reported growth inhibition: -10.9

Quick note, growth inhibition for C/C=C/COC(=O)c1[nH]c2c(c1C)C(=O)CC(c1ccco1)C2 (configuration not stated) landed at -4.97

CN(C)CCCNC(=O)CCC1CCCCC1 has a reported growth inhibition of -1.1

Query Cc1ccc(S(=O)(=O)c2nc(-c3ccco3)oc2SCC(=O)NCC2CCCO2)cc1 (configuration not stated) yields growth inhibition of 0.025

Quick note, growth inhibition for COC(=O)c1ccc(-c2nn(C)c(=O)c3ccccc23)cc1 landed at 3.78

Reported growth inhibition of COCCNC(=O)CN(C)S(=O)(=O)c1ccc(Br)cc1 : -11.6

Per the record, Cn1c(=O)[nH]c(=O)c2c1nc(N1CCCCC1)n2CCSc1nc2ccccc2o1 has growth inhibition of -4.52

Lab note: CSc1nc2c(c(=O)n1C)SC(C)C2 (configuration not stated) gave growth inhibition of -6.38

Per the records, this compound ( O=C(Nc1ccc(-c2nc3cccnc3s2)cc1)c1ccco1 ) has growth inhibition equal to -4.68

Lab note: measured growth inhibition of Cc1nn(-c2ccc(F)cc2)c2c1cc(C#N)c1nc3ccccc3n12 was 1.38

Record Cc1ccc(F)c(NC=C2C(=O)OC(C)(C)OC2=O)c1 . Reported growth inhibition: -10.2

Entry Cc1ccc(OC(=O)CCC(=O)N2CCc3ccccc32)cc1 ; growth inhibition = -5.4

Consider CC12CCC(C(=O)Nc3ccc4c(c3)OCCO4)(OC1=O)C2(C)C (configuration not stated) . Its measured growth inhibition is -20.5

Noted for O/N=C1/CCc2cccc3cccc1c23 : its growth inhibition reads -11.1

Please fill in: growth inhibition reported for Cc1nn(-c2ccccc2)c(Cl)c1C(=O)Nc1c(C)n(C)n(-c2ccccc2)c1=O = -9

Record CC1CCc2nn(CC(=O)NCCN3CCCCC3C)cc2C1 (configuration not stated) , field growth inhibition: 0.05

So, O=C(Nc1c(C(=O)NCc2ccco2)cnn1-c1ccccc1)c1ccc(F)cc1 ? Its growth inhibition was -0.04

====

The compounds listed here are annotated with their growth inhibition.
Test: S. cerevisiae growth inhibition in permissive medium (OD615), pilot counter-assay for S. cerevisiae lifespan shortening project, permissive growth control (AID 705)
Conditions: OD615, 24 h, at 10 µM, active compounds read high
The source made the active and inactive calls.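 How the source made its calls: active means growth inhibition above 25% in both replicates, a cutoff set 3 SD above the mean; inconclusive means above 25% in only one replicate; inactive means the rest.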

Example entries and their recorded answers appear below.
CCOc1ccc(N(CC(=O)Nc2ccc(C)c(C)c2)S(=O)(=O)c2c(C)noc2C)cc1    0.98% (inactive)
CCN1CCN(C(=O)c2oc(=O)c3ccccc3c2-c2ccc(C)cc2)CC1    -1.38% (inactive)
CCN(CCNC(=O)Cn1c(=O)sc2ccccc21)c1ccccc1    -10.6% (inactive)
O=C(CSc1cn(Cc2ccccc2)c2ccccc12)Nc1nccs1    -7.55% (inactive)
Cn1c(=O)oc2cc(S(=O)(=O)NC3CCN(Cc4ccccc4)CC3)ccc21    -5.47% (inactive)
Cc1cc(C)cc(N(CC(=O)Nc2cccc(C)n2)S(=O)(=O)c2c(C)noc2C)c1    -12.3% (inactive)
O=C1C2C3C=CC(C3)C2C(=O)N1c1cccc(N2C(=O)C3C4C=CC(C4)C3C2=O)n1 (stereo not given)    -12% (inactive)
CCOc1ccc(OCCCCN(C)C)cc1    -10% (inactive)

The recorded growth inhibition for Cc1ccc(C(=O)CC2(O)C(=O)N(C)c3ccc(Br)cc32)c(C)c1 (stereo not given) is 2.26% (inactive)

According to the records, this compound CCN1CCN(Cc2ccc(NC(=O)Nc3ccccc3)cc2)CC1 displays growth inhibition of -11.3% (inactive)

====

Item-by-item account of viability increase
Assay: doxorubicin toxicity protection in MRP-1 cells – H69AR cells, CellTiter-Glo, duplicate, MRP-1 activator project, pilot screen (AID 807);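 also: compound pretreatment 18-22 h then 72 h combined with doxorubicin; 0% = doxorubicin alone and 100% = vehicle without doxorubicin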
Details: H69AR viability with doxorubicin, CellTiter-Glo luminescence; at 10 µM; active compounds read high
Calls of active or inactive are those of the source.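 The calls were made as follows: active = viability increase at or above a cutoff of the median across tested compounds plus 3 SD (cut at about 8.5% in these data, passing the limit was not always enough); inconclusive = some gains above the cutoff, reason not given; inactive = the rest.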

Answered examples (8):
Cn1cnc2cc(NC(=O)c3ccc(Cl)cc3)ccc21    0.08% (inactive)
COC(=O)c1nc2n(n1)C(c1ccc(OC)c(OC)c1)C(C(=O)OC1CCCCC1)=C(C)N2 (stereo unspecified)    -5.23% (inactive)
Cc1cc(C)n2c(SCC(=O)Nc3cc(C)on3)nnc2n1    1.73% (inactive)
Cn1c(=O)c2c(nc(SCCOc3ccc4ccc(=O)oc4c3)n2C)n(C)c1=O    1.22% (inactive)
Cc1ccc(C(=O)N2CCN(c3ccccc3)CC2)cc1C    0.84% (inactive)
CCOC(=O)CSc1nnc(CSc2nc(N)c3c(C)c(C)sc3n2)n1-c1ccccc1    -2.13% (inactive)
Cc1cc(N)n2nc(-c3ccccc3)cc2n1    -3.46% (inactive)
CCN1C(=O)c2cccc3c(N)ccc1c23    -5.55% (inactive)

Value of measured viability increase for the entry Cc1nonc1NC(=O)c1ccccc1Br : 0.21% (inactive)

Record summary for CNC(=O)C1C2C=CC3(O2)C1C(=O)N(C1CC1)C3C(=O)NCc1ccc(OC)cc1 (stereo unspecified) : reported viability increase = -1.49% (inactive)

viability increase in this record for CCOc1ccc(C2Oc3nc(SC)nnc3-c3ccccc3N2C(C)=O)cc1OC (stereo unspecified) : -2.28% (inactive)

====

Assay: viability of PTEN-null HCT116 cells – cell-based, HCT116 clonal line, CellTiter-Glo, pilot screen (AID 824);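 also: 0% = 20 µM Hyamine control and 100% = vehicle cell control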
Conditions: HCT116 PTEN-deleted viability, 60 h, at 10 µM, active compounds read low
Inconclusive results are not listed.
Returns: string. Value is T if measured viability is below 90%, and F if it is greater than or equal to it.

Solved entries (count: 2):
CC(=O)c1ccc(NC(=O)C2CCN(S(=O)(=O)c3cccc4cccnc34)CC2)cc1    F
COCCn1c(SCC(=O)N2CCN(c3ccccc3)CC2)nc2c(c1=O)SC(C)C2 (stereo unspecified)    F

Identify whether the molecule O=C(Cn1c(=O)oc2cc(S(=O)(=O)N3CCCC3)ccc21)NC1CCCc2ccccc21 (stereo unspecified) records viability below 90%. T

Is viability strictly under 90% for the entry CC1Cc2nc(SCC(=O)Nc3nccs3)n(C)c(=O)c2S1 (stereo unspecified) ? F

Could you please tell me whether viability recorded for Cc1ccc(OCCN2CCCCCC2)c(C)c1 is less than 90%? T

State whether 90% exceeds viability recorded for O=C(c1ccc(CS(=O)(=O)c2c(Cl)cccc2Cl)o1)N1CCCC1 . F

Is viability of CCOC(=O)Cn1c(=O)oc2cc(S(=O)(=O)N3CCCc4ccccc43)ccc21 strictly below 90%? F

I'd appreciate it if you could check whether O=C(O)CCCC(=O)Nc1c(F)c(F)c(F)c(F)c1F has viability smaller than 90%. F

Given the entry CCOC(=O)c1ccc(NCc2nc3ccccc3[nH]2)cc1 , would its reported viability be below 90%? T

Problem: For the molecule Cc1ccccc1NC(=O)C1CCCN(S(=O)(=O)c2cnc[nH]2)C1 (stereo unspecified) , is viability under 90%? F
